Every entry's value here was drawn from PubChem BioAssay (NCI).

Lab note: GI50 readings collected with OVCAR-5 ovarian for the following compounds.

Input: Record lookup: for OVCAR-5 ovarian, what GI50 belongs to CCOC(=O)c1c(-c2ccccc2)[n+](=O)c2ccc(Cl)cc2n1[O-] ?
Output: 7120 nM

Input: Please state recorded GI50 (tested on OVCAR-5 ovarian) of Cc1c2c(nn1C(=O)c1nn(-c3ccc(Cl)cc3)cc1O)-c1ccccc1CC2
Output: 72.3 nM

Input: Give the reported GI50 for Cc1ccc(S(=O)(=O)/N=c2\ssc(Nc3ccccc3)c2Cl)cc1 (system: OVCAR-5 ovarian).
Output: 21100 nM

Input: Find the measured GI50: item NC1=C(Cl)C(=O)c2ccc(S(N)(=O)=O)cc2C1=O , target or system OVCAR-5 ovarian.
Output: 251 nM

Input: # query: GI50 | item O=C(Nc1nccs1)c1cc2c(cc1Cl)Sc1nccn1S2(=O)=O | system: OVCAR-5 ovarian
Output: 21700 nM

Input: Find the measured GI50: item C=C1C(=O)O[C@H]2[C@H]1CC/C(Cn1cc(Cn3ccc4ccccc43)nn1)=C\CC[C@@]1(C)O[C@@H]21 , target or system OVCAR-5 ovarian.
Output: 1590 nM

Input: State its GI50 on OVCAR-5 ovarian: O=C1C(=O)c2ccccc2-c2ccccc21
Output: 1750 nM

Input: # returns recorded GI50 (system: OVCAR-5 ovarian) for O=C1OCc2c1cc(F)cc2[N+](=O)[O-]
Output: > 100000 nM

Input: Could you share what GI50 was measured for O=C1/C(=C\C(Cl)=C/c2ccc([N+](=O)[O-])cc2)SC(=S)N1CCc1ccc(O)cc1 , tested on OVCAR-5 ovarian?
Output: 447 nM

Input: For the record CNNCc1ccc(C(=O)NC(C)C)cc1 , what value of GI50 is listed for OVCAR-5 ovarian?
Output: > 500000 nM

Input: What value of GI50 on OVCAR-5 ovarian does C=C1C(=O)O[C@H]2[C@H]1CC/C(COC(=O)CCCCCCCCC(=O)OC/C1=C/CC[C@@]3(C)O[C@H]3[C@H]3OC(=O)C(=C)[C@@H]3CC1)=C\CC[C@@]1(C)O[C@@H]21 have?
Output: 2260 nM

Input: Missing value: GI50, OVCAR-5 ovarian, entry COc1cc(C#N)cc(OC)c1OCCOCCOc1c(OC)cc(C#N)cc1OC . Fill in?
Output: > 100000 nM

Input: Write down the reported GI50 of O=C1c2cc3c(cc2-c2c1c1ccc(Cl)cc1c(=O)n2C[C@H](O)[C@@H](O)[C@H](O)CO)OCO3 , test system: OVCAR-5 ovarian.
Output: 52.4 nM

Input: # query: GI50 | item O=C(Nc1n[nH]c2nc(-c3ccco3)ccc12)C1CC1 | system: OVCAR-5 ovarian
Output: > 25000 nM
